fraction ligated values, listed per item
B1: F1*; the commonest letter at each place (parent)
chain: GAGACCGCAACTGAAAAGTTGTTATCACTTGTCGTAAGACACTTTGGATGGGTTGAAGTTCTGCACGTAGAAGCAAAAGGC

# Variants of: B1
# assay_protocol: fraction ligated after 30 min (ligated reads / total reads); higher = more ligase activity
# assay_conditions: with F1*sub RNA substrate (template-directed ligation), 42 °C
Would you mind answering with just the numeric figure?

Solved cases (4 shown):
[[record]]
sequence_change = "C33T T44G"
value = 0.815

[[record]]
sequence_change = "T25C T49C"
value = 0.757

[[record]]
sequence_change = "A36G G47T"
value = 0.0714

[[record]]
sequence_change = "T43C T45G"
value = 0.257


Give the reported fraction ligated for this variant. T29G T30G 0.844
